FYI, the data here is from ChEMBL document CHEMBL1201862.

# Test system: Hs-578T
# protocolDescription: NCI tumour cell line growth inhibition, 48 h
Calls of active or inactive are those of the source. Rule as the data show it: active = GI50 up to about 1.1 µM and inactive = higher. Residues, ends and D or L forms follow the SMILES beside them. *: point of attachment. Cbz = O=C(OCc1ccccc1)*
recordedEndpoint: GI50

[
  {
    "compound": "CNC(=O)NC(CCCCNC(=O)OCc1ccccc1)C(=O)OCc1ccccc1 (centres undefined)",
    "reportedMeasurement": "79.8 µM (inactive)"
  }
]

Inquiry: Please give the measured GI50 for this compound: O=c1[nH]nc(Cc2c[nH]c3ccccc23)o1
Reply text: > 100 µM (inactive)

Inquiry: If you can, please state the reported GI50 value of CC(NC(=O)C(NC(=O)OCc1ccccc1)C(C)C)C(=O)NCC(=O)O (stereo not drawn) (Cbz-Val-Ala-Gly-OH; configuration not given here) .
Reply text: > 100 µM (inactive)

Inquiry: Requested read-out: GI50. Entry: O=C1C(Cl)=C(N2CCN(c3ccccn3)CC2)C(=O)c2c(O)ccc(O)c21
Reply text: 1.84 µM (inactive)

Inquiry: Endpoint output: GI50 of COC(C)C(O)(C(=O)OCC1=CCN2CCC(O)C12)C(C)(C)O (centres undefined) . Value?
Reply text: > 100 µM (inactive)

Inquiry: Give its GI50 value. Item: COC(=O)c1cc(C)n2c1CS[C@@H]2c1ccccc1
Reply text: 45.1 µM (inactive)

Inquiry: Given N=C(N)c1ccc(/N=N/c2c(O)ccc3cc(O)ccc23)cc1 , state its recorded GI50.
Reply text: > 100 µM (inactive)

Inquiry: Param item = COc1cc([C@H]2CC(=O)C[C@H](c3cc(OC)c(OC)c(OC)c3)C23C(=O)c2ccccc2C3=O)cc(OC)c1OC ; retrieve measured GI50.
Reply text: 46.6 µM (inactive)

Inquiry: Would you mind telling me what GI50 value was observed for CC(C)(C)[Si](C)(C)OCCOCn1cc(F)c(=O)[nH]c1=O ?
Reply text: > 100 µM (inactive)

Inquiry: Record request: GI50 value, item Nc1ncnc2c1sc1nc3ccccc3n12
Reply text: 12.2 µM (inactive)

====

# Tested on: NCI-H460
# protocolDescription: NCI tumour cell line growth inhibition, 48 h
Calls of active or inactive are those of the source. Cut-off read from the data, not from the text of the source: active = GI50 up to about 1.1 µM and inactive = higher.
Reply using exactly one outcome from Y for active, N for inactive

[
  {
    "compound": "Cc1ccc(/C=N/Nc2nncc3ccccc23)s1",
    "label": "N"
  },
  {
    "compound": "O=C1NCCS(=O)(=O)N2CCC[C@@H]12",
    "label": "N"
  },
  {
    "compound": "c1nnc(NCNc2nncs2)s1",
    "label": "N"
  },
  {
    "compound": "C[Si](C)(C)CC(N)=O",
    "label": "N"
  },
  {
    "compound": "CCN1CCCC(Nc2cc(C)nc(NC(=N)Nc3ccc(Cl)c(Cl)c3)n2)C1 (stereo not drawn)",
    "label": "N"
  },
  {
    "compound": "C#CCNC(Cc1c[nH]cn1)C(=O)O (stereo not drawn)",
    "label": "N"
  },
  {
    "compound": "CCCCCCCCCCCCCCCCOP(=O)(O)OP(=O)(O)OCC1OC(n2cnc3c(N)ncnc32)C(O)C1O (stereo not drawn)",
    "label": "N"
  },
  {
    "compound": "COc1ccc2nc3cc(Cl)ccc3c(Sc3ccccc3[N+](=O)[O-])c2c1",
    "label": "N"
  },
  {
    "compound": "COc1ccc2oc(=O)c(-c3csc(C)n3)cc2c1",
    "label": "N"
  },
  {
    "compound": "CCCCCC(=O)NC(=S)Nc1nnn[nH]1",
    "label": "N"
  }
]

Inquiry: What outcome does the record of this test show for CC1=C(C(=O)CC(=O)C(=O)Nc2cc(C)ccc2C)Sc2ccccc2N1 ?
Reply text: N

Inquiry: Can you look up the reported call for COc1cc2c(c(OC)c1OC)-c1ccc(OC)c(=O)cc1C(NC(=O)CCCCCNc1ccc(N=[N+]=[N-])cc1[N+](=O)[O-])CC2 (stereo not drawn) for me?
Reply text: Y

Inquiry: Could you kindly confirm the outcome this assay logged for Cn1c(=O)c2ccc(-c3ccc(Br)cc3)nc2n(C)c1=O ?
Reply text: N

====

# Test system: SK-OV-3
# protocolDescription: NCI tumour cell line growth inhibition, 48 h
Calls of active or inactive are those of the source. No stated cut-off is given here; in the data, active = GI50 up to about 1.1 µM and inactive = higher.
recordedEndpoint: GI50

[
  {
    "compound": "CC(=O)NNc1nc(C)c(C(=O)/C=C/c2ccc(NC(C)=O)cc2)s1",
    "GI50": "> 100 µM (inactive)"
  },
  {
    "compound": "O=[N+]([O-])c1cc([N+](=O)[O-])c(/C=C/c2ccc(Cl)c(Cl)c2)cc1/C=C/c1ccc(Cl)c(Cl)c1",
    "GI50": "64.6 µM (inactive)"
  },
  {
    "compound": "CNC(=S)Nc1ccc(OC)c2ccccc12",
    "GI50": "> 10 µM (inactive)"
  },
  {
    "compound": "Cc1n[n+](Cc2ccccc2)c2sc(N)nn12",
    "GI50": "85.9 µM (inactive)"
  }
]

Inquiry: Can you share its GI50? I mean this compound: C/C(CC(=O)NCCc1ccccc1)=N\NC(=O)C[n+]1ccccc1
Reply text: > 100 µM (inactive)

Inquiry: For the compound shown here, N#C/C=C\c1ccc(-c2cc(C(F)(F)F)cc(C(F)(F)F)c2)o1 , give the reported GI50.
Reply text: 30.3 µM (inactive)

Inquiry: Which GI50 reading was recorded for the compound O=C(O)/C=C(/C(=O)O)C12CCN3CC4=CCOC5CC(=O)NC1C5C4CC32 (stereo unspecified) ?
Reply text: > 100 µM (inactive)

Inquiry: Looking for the measured GI50 of COc1ccc(-c2cc(O)c3cc(OC)ccc3n2)cc1 , can you help?
Reply text: > 100 µM (inactive)

Inquiry: Find the recorded GI50 belonging to CN1CCCN2CCN(C)CCN(CC1)CC2 and report it.
Reply text: > 100 µM (inactive)

Inquiry: Any idea what GI50 was measured for CCOc1cc(/C=C/C=C/C=C/c2ccc(N(C)C)cc2)[s+]c2ccccc12 ?
Reply text: > 100 µM (inactive)

Inquiry: Requested read-out: GI50. Entry: CN(C)CCC(CCN(C)C)=NO
Reply text: > 100 µM (inactive)

====

# Test system: UO-31
# protocolDescription: NCI tumour cell line growth inhibition, 48 h
Calls of active or inactive are those of the source. Cut-off read from the data, not from the text of the source: active = GI50 up to about 1.1 µM and inactive = higher.
recordedEndpoint: GI50

Inquiry: I have this compound here, CCN(CC)C(=S)N/N=C/c1cc([N+](=O)[O-])ccc1O , and I need its recorded GI50.
Reply text: 3.12 µM (inactive)

Inquiry: Quick one: GI50 for Cc1cc(S(=O)(=O)Nc2nc(N)n(-c3cnc4ccccc4n3)n2)c(S)cc1Cl ?
Reply text: > 100 µM (inactive)

Inquiry: GET /values?readout=GI50&item= Cc1ccc(/C=C2\N=C(N3CCCCC3)NC2=O)cc1
Reply text: > 100 µM (inactive)

Inquiry: // lookup GI50 for CCCCCCc1ccc(C(=O)NO)cc1
Reply text: 15.7 µM (inactive)

Inquiry: Need GI50, item CCCCCCCCC/C=C1/CC(CO)(COC(=O)c2ccccc2)OC1=O (stereo not given)
Reply text: 13 µM (inactive)

Inquiry: Please look up its GI50: CCOC(=O)/C=C/C1=C(Br)[C@@]2(C)CC[C@@H]3c4ccc(O)cc4CC[C@H]3[C@@H]2C1
Reply text: 16.8 µM (inactive)

Inquiry: Look at this compound and give its reported GI50. COc1cc(C)cc2c(-c3c(O)cc(O)c4c3C[C@H](C)N[C@H]4C)cc(-c3cc(-c4c(O)cc(O)c5c4C[C@H](C)N[C@H]5C)c4cc(C)cc(OC)c4c3O)c(O)c12
Reply text: > 100 µM (inactive)

Inquiry: Name the reported GI50 value associated with the compound O=C1CCSc2c(cnc3ccccc23)N1
Reply text: 60.7 µM (inactive)

Inquiry: Given CCCCCc1nnc(NS(=O)(=O)c2ccc(NC(=O)OCC(C)C)cc2)s1 , state its recorded GI50.
Reply text: 33.4 µM (inactive)

Inquiry: Dear colleague, I am looking for the recorded GI50 of the following compound: COc1cc2c(Cc3cc(OCc4ccccc4)ccc3N)nccc2c(OC)c1OC
Reply text: > 10 µM (inactive)

====

Recorded GI50 by entry
# Test system: A549
# protocolDescription: NCI tumour cell line growth inhibition, 48 h
Active and inactive are the calls of the source. No stated cut-off is given here; in the data, active = GI50 up to about 1.1 µM and inactive = higher.

Examples with answers:
[
  {
    "compound": "CCCCN(CC)CC(C(C)=O)c1c(O)c2ccccc2oc1=O (stereo unspecified)",
    "reportedMeasurement": "> 100 µM (inactive)"
  },
  {
    "compound": "N#Cc1ccccc1C#C/C=C\\C#Cc1ccccn1",
    "reportedMeasurement": "19.8 µM (inactive)"
  },
  {
    "compound": "Nc1n2nc(-c3ccccc3)sc2n[n+]1CC(=O)c1ccccc1",
    "reportedMeasurement": "21.2 µM (inactive)"
  },
  {
    "compound": "CCOC(=O)COc1c(OC)cc(C2C3=C(COC3=O)Oc3cc4c(cc32)OCO4)cc1OC (stereo unspecified)",
    "reportedMeasurement": "4.45 µM (inactive)"
  },
  {
    "compound": "Cc1cc2nc(N3C(=O)/C(=C/Cc4ccco4)N=C3c3ccccc3)sc2cc1C",
    "reportedMeasurement": "36.9 µM (inactive)"
  },
  {
    "compound": "O=C(Cc1ccccc1F)NC1=C(Cl)C(=O)c2ccccc2C1=O",
    "reportedMeasurement": "2.51 µM (inactive)"
  }
]

Inquiry: # query: GI50 of entry O=C(O)C1C2C=CC(C2)C1c1ccccc1 (stereo unspecified)
Reply text: > 100 µM (inactive)

Inquiry: So what's the measured GI50 for this one? O=C1c2ccccc2C(=O)c2c(Nc3ccc4c5c(cccc35)C(=O)c3ccccc3-4)cccc21
Reply text: > 100 µM (inactive)

Inquiry: GI50 lookup needed for O=S(=O)(c1ccccc1)c1ccc(-c2nc(-c3ccc4c(c3)Sc3ccccc3S4)cs2)cc1 , thanks.
Reply text: > 100 µM (inactive)

Inquiry: Dear colleague, I am looking for the recorded GI50 of the following compound: O=[PH](O)c1ccsc1
Reply text: > 100 µM (inactive)

Inquiry: Reported GI50, compound COc1cc2c(Cc3cc(OCc4ccccc4)ccc3N)nccc2c(OC)c1OC : ____
Reply text: > 10 µM (inactive)
